// provenance: ChEMBL document CHEMBL1129698

Test system: Human alphaherpesvirus 1
Experiment: Compound was tested for the antiviral activity against herpes simplex virus-1 thymidine kinase deficient (HSV-1 TK-) VMW 1837 strain
Assay type: functional
Reported MIC values for the following compounds.
RECORDED METRIC: MIC (µg/mL)

• O=c1[nH]c(=O)n([C@H]2C[C@H](O)[C@@H](CO)O2)cc1/C=C/Br [BRIVUDINE] = 30
• Nc1nc2c(ncn2COCCO)c(=O)[nH]1 [ACYCLOVIR] = 4
• Nc1ncnc2c1ncn2C[C@H]1C[C@H](O)[C@@H](CO)O1 = 8
• NC1=NC(=O)C2N=CN(C[C@H]3C[C@H](O)[C@@H](CO)O3)C2=N1 (some centres undefined) = 12
